The reported measurements were obtained from ChEMBL document CHEMBL4296182.

System: Staphylococcus aureus
TEST_DETAILS: Antibacterial activity against Staphylococcus aureus MRSA ATCC 43300 (CO-ADD:GP_020); MIC in CAMBH media using NBS plates, by Resazurin F(560/590)
Assay type: functional
EXPERIMENTAL_CONDITIONS: Concentration 20 uM, ASSAY_TEST Inhibition of Bacterial Growth, detection method Resazurin, Fluorescence (ex560/em590), MEDIA CAMHB, plate type 384well, CORNING #3640, time 18 hr
# reported Inhibition; entries follow
Just the number in %, nothing appended.

Recorded results for 4 compounds are shown here.
COMPOUND: C=CCOCCN(CC)CC
SYSTEM_NAME: Staphylococcus aureus
MEASUREMENT_KIND: Inhibition
OBSERVED_RESULT: -2.28
//
COMPOUND: Cc1cccnc1NC(=O)c1csnn1
SYSTEM_NAME: Staphylococcus aureus
MEASUREMENT_KIND: Inhibition
OBSERVED_RESULT: 5.73
//
COMPOUND: COc1cccc(OCC(O)CN2CCN(c3ccccc3)CC2)c1 (stereo unspecified)
SYSTEM_NAME: Staphylococcus aureus
MEASUREMENT_KIND: Inhibition
OBSERVED_RESULT: 10.13
//
COMPOUND: Cc1csc(NC(=O)c2ccc(C(=O)Nc3nc(C)cs3)cc2)n1
SYSTEM_NAME: Staphylococcus aureus
MEASUREMENT_KIND: Inhibition
OBSERVED_RESULT: -1.48

What does the data say about its Inhibition? Entry: `Cn1c(=O)c2c(nc(Oc3ccccc3)n2C)n(C)c1=O`
7.55

Try the compound `O=C(c1cccnc1)c1cc(-c2ccccn2)c(=O)n2ccccc12`
15.83

Try the compound CCOC(=O)C(=O)C1C(=O)Nc2ccccc21 (stereo unspecified)
11.5

Try the compound `Cc1ccc(-c2nc(-c3nccc4ccccc34)oc2-c2ccccc2)cc1`
17.39

Try the compound COC(=O)c1cc(C)c(C)cc1NC1OC(CO)C(O)C1O (stereo unspecified)
-3.53

Try the compound `CCOC(=O)c1c[nH]nc1O`
2.24

Try the compound `O=C1c2ccccc2C(=O)c2c1cccc2-n1nnc2ccccc21`
8.87

Try the compound `CCOc1cc2c(Cl)ncnc2c(OCC)c1OCC`
4.34

Try the compound `CCOC(=O)Cc1cnc(S)nc1O`
9.6

Try the compound `CSc1nc(Cl)c(Br)c(Nc2cnc(O)nc2O)n1`
5.42

Try the compound Cc1ccccc1OCC(O)CN1CCN(c2ccc(Cl)cc2)CC1 (stereo unspecified)
16.79

Try the compound COC1C(=O)CCC2(CO2)C1(O)C1(C)OC1CC=C(C)C (stereo unspecified)
-15.99

====

Tested on: Staphylococcus aureus
TEST_DETAILS: Antibacterial activity against Staphylococcus aureus MRSA ATCC 43300 (CO-ADD:GP_020); MIC in CAMBH media using NBS plates, by Resazurin F(560/590)
Type: functional
EXPERIMENTAL_CONDITIONS: Concentration 20 uM, ASSAY_TEST Inhibition of Bacterial Growth, detection method Resazurin, Fluorescence (ex560/em590), MEDIA CAMHB, plate type 384well, CORNING #3640, time 18 hr
MEASUREMENT_KIND: Inhibition (%)
Just the number in %, nothing appended.

COMPOUND: O=C(Nc1ccc2ccccc2c1)c1ccc(Cl)cc1Cl
UNIT_SYMBOL: %
Inhibition: 8.36
//
COMPOUND: Cc1c(O)cnc2nn(-c3ccccc3)c(=N)n12
UNIT_SYMBOL: %
Inhibition: 11.23

What does the data say about its Inhibition? Entry: `CC(C)C(=O)Nc1cccnc1`
-3.96

Try the compound `CC(=O)Nc1cccc(NC(C)=O)n1`
23.71

Try the compound `Oc1ccc(Nc2ccnc3cc(Cl)ccc23)cc1`
-0.21

Try the compound `CCCCOc1ccc(OC(=O)Nc2cc(Cl)ccc2OC)cc1`
13.88

Try the compound `O=C(Nc1ccc(F)cc1)OCCOc1ccc(Br)cc1`
6.52

Try the compound `COc1cc(NC(=O)CCl)ccc(=O)c1`
-5.48

Try the compound CCCC1OC(c2cc3c(cc2Cl)OCO3)OCC1CC (stereo not drawn)
3.15

Try the compound `COC(=O)C(=Cc1ccccc1[N+](=O)[O-])C(=O)OC`
-1.4
